Target: T1, HLA-A*01:01 (human)
T1 construct: MHC class I monomer first loaded with a UV-sensitive peptide (not identified) that is cleaved by UV irradiation and exchanged for the tested peptide; captured on streptavidin plates, detected with anti-β2m; also called peptide-receptive MHC molecules
Assay: UV-ligand exchange, anti-b2m ELISA
For each entry below, report its peptide exchange yield value.

Would you please look over these solved cases?
IPSFNEMVY; 20 to 50%
DTDPLKAAGL; 10 to 20%
WSQSSSLMY; > 75%
SSWSAGENDSY; 50 to 75%

Need peptide exchange yield for each of these binders.
1. EVLGEEMYAY
2. STIDFRAGF
3. LPSPAATIWDY

OUTPUT:
1. 20 to 50%
2. 20 to 50%
3. 50 to 75%

FYI, the data here is from patent US20200087364A1.
